Where do these numbers come from? They come from the supplement of paper PMC10567573.

# test-summary: protein stability index of a GFP-peptide fusion (GPS, HEK-293T) (PSI 1-6); higher = more stable;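 note: 24-mer peptide tiles fused after GFP, lentivirally expressed, FACS-sorted into six equal bins by GFP/DsRed ratio, decoded by Illumina sequencing, PSI is the read-weighted mean bin number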
# condition-notes: treatment: DMSO; c terminus: a fixed tail appended
Reported protein stability index values for a set of sequences

chain-sequence | protein stability index
EKIWRPNRVFSLQDLCCRAIVSCT [RAB40C] | 2.76
RLEALSTERDEIEDVKCQEDQKLQ [TRIM15] | 5.21
RDQGSSALSGVGGIRLPNGKLKCD [IKZF1] | 4.66
QGSPAVDKERFTTLVQDLANAFQQ [CHIT1] | 3.13
HGPQLPTGIEGNWGRLLEQVGTMA [ZBED2] | 3
AAFPNLANLSRTQLLHLGLTQGLI [KLHDC10] | 2.58
FATQTEELNKQVVSSSEQLQSYQA [KRT33B] | 4.75
VPAGEEEGELGEYRQKLLMFLEIS [VPS39] | 3.39
GGVGGSSRARSASSPRGMVRVCDL [ANKRD17] | 3.97
CESLTYGLPFILRPTSCWQLDWDE [M1AP] | 2.25
LDFKDLLESEDWEEDNWDPELMEH [TEX19] | 4.86
RHSNVVILTTSNITEKIDVAFVDR [TRIP13] | 2.34
ELDIPQSVQQNGSIYIHVYFTKSG [CLPTM1] | 2.3
LPTDAVDCMSRELVSLTSRNPDQR [FBXO34] | 4.85
LALKLPDGSYALNGEYTLMPSPTD [ADAMTS4] | 2.35
GLPAQQVGPWLGQLQELLHHCDDH [RSAD1] | 3.6
GPAGHSKGELAPELGEEPQPRDEE [POLD4] | 5.41
HRIWMYNCHIGGSFSEETEKKFEH [LOXL2] | 2.42
AEHQFSFMEKRNQWLVSQLSAASP [TRAF3IP2] | 3.02
VFMEFGPPNQQMSPSPMSHGHYSM [DLX1] | 2.21
PEKKSDQPMCEEHEEERINIYCLN [TRIM55] | 4.79
EEERPLPEKEYQRQVWLLFEYPES [KCNA1] | 3.33
WHEIRQGRLPRIPQVLSQEFTELL [WEE1] | 2.42
GRDSEGPAEGEGRLGRCMRRLRDM [KCNG1] | 4.99
TYIPENNARGASIFSVTALDPDSK [PCDHGA10] | 4.49
KQPDLTMVRKIGCYAAMKKKIYAM [GAN] | 2.28
AVLDCLLDFLPKDVKKEKLSPDIM [TENT5D] | 2.99
STNLGVNQAGFTLHSAIYAARPDV [ADD1] | 3.02
TAPRTLPSCLACNRQCLCSAESMV [SPRY1] | 2.75
ARYYLVQGLIEDCQLALQQKRETL [KCTD13] | 2.11
RFHGRLLFLKDVLGDEICCWSFYG [KCTD13] | 2.49
TTTDHSSNPGPVPGSSSGPVLGSS [SPAG8] | 5.08
LSNLVQHILKKYYGNGMRKSPEMP [RTP4] | 2.43
VKHQCCPGCGYFCTAGNFMECQPE [EHMT1] | 3.31
TSAITASRSESPPPLSDPKQAKVV [BRD3] | 5.24
CTQVTQDGDIPNIPAEENASTSTP [FAM189A2] | 5.65
SQMPPPAGGTSDDPEPSGPHLPRV [SCNN1D] | 5.23
SLKLIKRLYVDKSLNLSTEFISST [SERPINB5] | 2.38
MEMYNVIMTVKEDQFSALGLDPCL [SLC6A17] | 2.45
DDNSCEDLEEERREEEEKTPPETK [PCMTD2] | 5.73
CEALINRVSAMRDYRGPDCRYLNF [MIA2] | 2.3
SSSFSNLDLSEEDSDDPSVTLELS [VDR] | 5.35
IIQFVESGDDKNSNYFSMDSMEGK [TRIM29] | 3.46
KLVDAIVSGDTSKLMKILQPQDVD [RIPK4] | 2.51
SHAGKVVLRSWYEKNKHIFPASRW [FAM50A] | 2.4
MGVNAVHWFRKGLRLHDNPALKEC [CRY1] | 2.53
EPSLKATMGLAGRARVKEKFSPEA [ALG2] | 4.6
GNKCDLEDERVVGKEQGQNLARQW [RAP1B] | 4.7
